The reported numbers originate from ChEMBL document CHEMBL1128289.

- System: CHO-AA8
- Method Description: Cytotoxicity in a growth inhibition assay against aerobic cultures of AA8 cells was determined
- Format: functional, cell-based, Cricetulus griseus
- Applied Conditions: cho-aa8
Measurement Name: pIC50
Entry type: numeric. Quantity: pIC50, the -log10 of concentration in molar units.

Observed pIC50, CHO-AA8, `NC(=O)c1cc(N(CCCl)CCCl)c([N+](=O)[O-])cc1[N+](=O)[O-]` : 2.80

---

- Tested on: CHO-AA8
- Method Description: Cytotoxicity in a growth inhibition assay against aerobic cultures of AA8 cells was determined
- Type: functional, cell-based, Cricetulus griseus
- Applied Conditions: Cricetulus griseus, CHO-AA8
Property: pIC50; scope: individual compounds
Entry type: numeric. Quantity: pIC50, the -log10 of concentration in molar units.

// solved cases for pIC50 follow
NC(=O)c1cc2c(cc1N)NCCN2CCCl; 5.16
NC(=O)c1cc(N(CCO)CCO)c(N)cc1N; 2.64

Notebook: `NC(=O)c1cc2c(cc1[N+](=O)[O-])NCCN2CCCl` , pIC50 read as 3.14

---

- Test system: UV4
- Method Description: Cytotoxicity in a growth inhibition assay against aerobic cultures of UV4 cells was determined
- Type: functional, cell-based
- Applied Conditions: Cricetulus griseus
Measurement Name: pIC50
Entry type: numeric. Quantity: pIC50, the -log10 of concentration in molar units.

// solved cases for pIC50 follow
NC(=O)c1cc2c(cc1N)NCCN2CCCl; 6.06
NC(=O)c1cc(N(CCCl)CCCl)c([N+](=O)[O-])cc1[N+](=O)[O-]; 3.02
NC(=O)c1cc2c(cc1[N+](=O)[O-])NCCN2CCCl; 4.31

Now consider the entry below.
Notebook: `NC(=O)c1cc(N(CCO)CCO)c(N)cc1N` , pIC50 read as 2.52
